Test system: HT29 colon
Assay: NCI-60 one-dose screen, 48 h (100 = growth as untreated, 0 = no growth, -100 = all killed)
Details: 10 µM unless noted
The panel holds about 83,000 compounds, 20% with a hit somewhere; the sample as a whole holds those more often.
Readout Name: growth (%)
Your answer is read as %, so omit the unit and give the number.

Worked set:
1. Nc1ccc2c(c1)C(=O)C(=O)c1c-2nc2ccccn12 = 76.1
2. COc1ccc(NC(=O)Nc2ccc(Nc3nc(C)cc(Nc4ccc(C)cc4)n3)cc2)cc1 = -84.8
3. CCOC(=O)C1=C(C)n2nc(CC#N)c(C#N)c2NC1c1ccc(CC)cc1 (centres undefined) = 107
4. O=C(N/N=C/C[C@@H]1[C@@H](/C=C/[C@@H](O)COc2cccc(Cl)c2)[C@H](O)C[C@@H]1O)c1ccncc1 = 71.1
5. COc1ccc(/C=C/C(=O)/C=C(/C=C/c2ccc(OC)c(OC)c2)OB(F)F)cc1OC = 3
6. COC1=CC=CC2(OC)C3(O)CCCc4cccc(c43)N3C(=O)COC132 (centres undefined) = 97.2

May I ask what growth has been recorded for Nc1cccc(C(=O)Nc2ccc3c(O)c(N=Nc4ccc(N=Nc5ccc(S(=O)(=O)O)cc5)cc4)c(S(=O)(=O)O)cc3c2)c1 ?
99.1

Looking for the measured growth of CCOC(=O)C1CCN(S(=O)(=O)/N=C2/NC(=O)NC2=C(Cl)Cl)CC1 , can you help?
-61.6

Data request, read-out growth, for CN(C)C(CNc1oc(-c2cccc3ccccc23)nc1C#N)c1ccco1 (centres undefined)
72.1

----------
System: HCT-15 colon
Test: NCI-60 one-dose screen, 48 h
Details: 10 µM unless noted
This is part of a sample that, as a whole, favours compounds with a hit. Of some 83,000 tested, about 20% had one in any assay. Active and inactive are the calls of the source. Rule for the calls: active = growth percent below 10; inactive = the rest.
Returns: one label drawn from 1 for active, 0 for inactive

1. CC1CCN(CCCCCOc2ccc3oc4ccccc4c(=O)c3c2)CC1 = 0
2. CCOC(=O)c1c(-c2ccc(O)cc2)c(C#N)c2c(C#N)c(N)nn2c1N = 0
3. COc1ccccc1-c1ccc2nc(NC(=O)Nc3cc(C(F)(F)F)cc(C(F)(F)F)c3)sc2c1 = 1
4. Cc1nc2sc(C(=O)Nc3ccccc3)c(N)c2cc1C(C)O (stereo not given) = 0

Attention now shifts to the item below.
What is the recorded call for this compound in the test? COc1cc2c(cc1OC)C(Sc1ccc(Cl)cc1)c1c(nc(N)c(C#N)c1N)O2 (stereo not given)
1

----------
Test system: HOP-92 NSCLC
Assay: NCI-60 one-dose screen, 48 h (100 = growth as untreated, 0 = no growth, -100 = all killed)
Settings: 10 µM unless noted
Protocol: Growth inhibition of the HOP-92 human Non-Small Cell Lung tumor cell line is measured as a screen for anti-cancer activity. Cells are grown in 96 well plates and exposed to the test compound for 48 hours. Compounds are tested at a single concentration, which is 10^-5 M for most compounds. The reported endpoint is percent growth (GI% or GIPRCNT), where numbers from 0 - 100% represent growth inhibition, and numbers from -100% - 0 represent cell death. […]
About 83,000 compounds went through this panel and 20% of them were active in at least one assay; those are over-represented in the sample as a whole.
Readout Name: growth (%)
The answer is to be given in %; state only the numeric part.

1. COc1cc(C2=NN(C(C)=O)C(c3cccc(Nc4ccnc5cc(C(F)(F)F)ccc45)c3)C2)cc(OC)c1OC (configuration not stated) = 25.3

Item CC(=O)OC[C@]12CC[C@@H](c3cn(Cc4ccc(Cn5cc([C@@H]6CC[C@]7(COC(C)=O)CC[C@]8(C)[C@H](CC[C@@H]9[C@@]%10(C)CC[C@H](OC(C)=O)C(C)(C)[C@@H]%10CC[C@]98C)[C@@H]67)nn5)cc4)nn3)[C@@H]1[C@H]1CC[C@@H]3[C@@]4(C)CC[C@H](OC(C)=O)C(C)(C)[C@@H]4CC[C@@]3(C)[C@]1(C)CC2 has what recorded growth?
103

// provenance: PubChem BioAssay (NCI)
